- ASSAYED SYSTEM: T1, LTK 001P
- T1 construct: Expressed in Expi293 cells and captured on a Protein A chip through its Fc
- ASSAY OVERVIEW: SPR, Biacore 8K; LTK 001P captured on Protein A chip, ligand as analyte, 6 concentrations from 20 nM
MEASUREMENT TYPE: binding result

Ligand 007P (ligand) DGHHHHHHGSLQDSEVNQEAKPEVKPEVKPETHINLKVSDGSSEIFFKIKKTTPLRRLMEAFAKRQGKEMDSLTFLYDGIEIQADQTPEDLDMEDNDIIEAHREQIGGLEVLFQGPAAGLGPSPEQRVEIVPRDLRMKDKFLKHLTGPLYFSPKCSKHFHRLYHNTRDCTIPAYYKRCARLLTRLAVSPVCMEDKQ = binds
Ligand 009P (ligand) DGHHHHHHGSLQDSEVNQEAKPEVKPEVKPETHINLKVSDGSSEIFFKIKKTTPLRRLMEAFAKRQGKEMDSLTFLYDGIEIQADQTPEDLDMEDNDIIEAHREQIGGLEVLFQGPGPSPEQRVEIVPRDLRMKDKFLKHLTGPLYFSPKCSKHFHRLYHNTRDCTIPAYYKRCARLLTRLAVSPVCMEDKQ = binds
Ligand 017P (ligand) DGHHHHHHGSLQDSEVNQEAKPEVKPEVKPETHINLKVSDGSSEIFFKIKKTTPLRRLMEAFAKRQGKEMDSLTFLYDGIEIQADQTPEDLDMEDNDIIEAHREQIGGLEVLFQGPMKDKFLKHLTGPLYFSPKCSKHFHRLYHNTRDCTIPAYYKRCARLLTRLAVSPVCMEDKQ = binds
